Please go through the items and note down their cell viability.
- System: P12-Ichikawa
- protocol notes: cell viability relative to DMSO control; higher = less cytotoxic
- conditions used: RPMI 5 mM glucose + 10% FBS; 48 h; 0.00702 µM
Numeric only. Scale: %

[Q] Check the records and state cell viability for CC(C)OC1=CC=C2C(=C1)O\C=C(/C2=O)C3=CC=CC=C3
[A] 127

[Q] Give reported cell viability value for Cc1c[nH]c(-c2cnc(NCCNc3ccc(C#N)cn3)nc2-c2ccc(Cl)cc2Cl)n1
[A] 77.7

[Q] Respond only with cell viability recorded for C[C@H]1O[C@H](C[C@H](O)[C@@H]1O)O[C@H]2[C@@H](O)C[C@@H](O[C@@H]2C)O[C@H]3[C@@H](O)C[C@@H](O[C@@H]3C)O[C@H]4CC[C@@]5(C)[C@H](CC[C@@H]6[C@@H]5C[C@@H](O)[C@]7(C)[C@H](CC[C@]67O)C/8=C/C(=O)OC8)C4
[A] 124

[Q] Provide measured cell viability value, entry: CCOC(=O)\C1=C\[C@@H](OC(CC)CC)[C@H](NC(C)=O)[C@@H](N)C1
[A] 97.4

[Q] Please indicate cell viability recorded for NC/1=N/C(=O)N(/C=N1)[C@@H]2O[C@H](CO)[C@@H](O)[C@H]2O
[A] 102

[Q] Note cell viability for the molecule shown: CC(O)C1C2C(C)\C(=C(/N2C1=O)C(O)=O)SC3CNC(C3)C(=O)N(C)C (configuration not stated)
[A] 79.4

[Q] For the molecule C[C@]12CC[C@H]3[C@@H](CCC/4=C/C(=O)CC[C@]34C)[C@@H]1CC[C@@H]2OC(=O)CCC5CCCC5 , report cell viability.
[A] 101

====

- System: SEM cells
- protocol notes: cell viability relative to DMSO control; higher = less cytotoxic
- conditions used: RPMI 5 mM glucose + 10% dialyzed FBS; 48 h; 0.00702 µM
property label: cell viability (%)
Give the value, in units of %, as a plain number.

[Q] Complete the entry with cell viability for COc1ncc(-c2ccc3c(Nc4cc(Oc5cc(F)cc(F)c5)cc(C(=O)O)c4)c([S+](=O)([O-])NC4CC4)cnc3c2)c(OC)n1
[A] 79.7

[Q] Provide one value: measured cell viability of O=C(Nc1cccnn1)N1CCC(=Cc2cccc(Oc3ccc(C(F)(F)F)cn3)c2)CC1
[A] 89.8

[Q] # return recorded cell viability for entry Cc1nc(Nc2n[nH]c3c2CN(C(=O)N[C@H](CN(C)C)c2ccccc2)C3(C)C)c2sccc2n1
[A] 70.1

[Q] State, in one line, measured cell viability of c1ccc(-c2oc3ncnc(NC[C@@H]4CCCO4)c3c2-c2ccccc2)cc1
[A] 115

[Q] Answer with reported cell viability of CCOc1cc(CC(=O)N[C@@H](CC(C)C)c2ccccc2N2CCCCC2)ccc1C(=O)O
[A] 123

[Q] Return value of cell viability for input N[S+](=O)([O-])OC[C@@H]1C[C@@H](n2ccc3c(N[C@H]4CCc5ccccc54)ncnc32)C[C@@H]1O , no commentary.
[A] 95.7

[Q] Respond only with cell viability recorded for NC(=O)OCC(COC(N)=O)c1ccccc1
[A] 99.4

[Q] Could you please provide reported cell viability for OCc1ccc(-c2ccc(-c3ccc(CO)s3)o2)s1 ? Thanks!
[A] 95.7

[Q] Specify cell viability for CC[C@]1(O)C[C@@H]2CN(CCc3c([nH]c4ccccc34)[C@@](C(=O)OC)(c3cc4c(cc3OC)N(C)[C@H]3[C@@](O)(C(N)=O)[C@H](O)[C@]5(CC)C=CCN6CC[C@]43[C@@H]65)C2)C1 and stop.
[A] 124

[Q] State its cell viability for this molecule: Cc1noc(-c2ccc(CSCCC(=O)O)cc2)c1NC(=O)OC(C)c1ccccc1Cl (configuration not stated)
[A] 104

[Q] Please report the measured cell viability for C[C@H]1COC/2=C1/C(=O)C(=O)C3=C4CCCC(C)(C)C4=CC=C23
[A] 118

[Q] Identify measured cell viability corresponding to Cn1cc(C[C@@H](N)C(=O)O)c2ccccc21
[A] 102

[Q] Provide only the value of recorded cell viability for CC1(C)C(N(O)C(=O)Nc2ccc(Cl)cc2)N(c2ccc(Cl)cc2)C(=O)N1CC(=O)N/N=C/C=C/c1ccc([N+](=O)[O-])o1 (configuration not stated)
[A] 111

[Q] Fill in reported cell viability for this entry: CCOC(=O)/C=C/[C@H](C[C@@H]1CCNC1=O)NC(=O)[C@@H](CC(=O)[C@@H](NC(=O)c1cc(C)on1)C(C)C)Cc1ccc(F)cc1
[A] 119

[Q] Return cell viability (reported value) for this molecule: OC1=CC2=C(C(=C1)O)C(=O)\C(=C(/O2)C3=CC(=C(O)C=C3)O)O
[A] 92.1

[Q] Respond only with cell viability recorded for CNC(=O)Nc1ccc(-c2nc(N3CC4CCC(C3)O4)c3cnn(C4CCC5(CC4)OCCO5)c3n2)cc1
[A] 88.7

[Q] // Input: N#C/C(C(=O)c1ccc(Cl)cc1Cl)=C1/NC(=O)c2ccc(Cl)cc2N1 . Output its cell viability only.
[A] 131
